Please provide measured inhibition for the entries that follow.
Method notes: inhibitors of E-selectin induction by TNFa, primary screen, imaging, HUVEC, immunofluorescence, MLSMR starter and 10KST1 sets (AID 487);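 further: signal is fraction of cell area covered by stained E-selectin grains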
Assay setup: HUVEC TNFalpha-induced E-selectin immunofluorescence imaging, at 2 µM; hits give high values
Active and inactive are the calls of the source.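 How the source made its calls: active means visually confirmed hit in the image check and inhibition above 20%; inconclusive means visually confirmed hit but inhibition not above 20%; inactive means no visual hit in the image check.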

CCN(CC)C(=O)c1sc2nc(-c3cccs3)cc(-c3cccs3)c2c1N ... -166% (inactive)

State recorded inhibition for all listed compounds.
1. CC(C)CC(NC(=O)OC(C)(C)C)C(=O)NCc1ccccc1 (centres undefined)
2. Cn1nnnc1-c1cc(Br)ccc1NC(=O)c1ccccc1
3. O=C1CCC(=O)N1CN(Cc1ccco1)CN1C(=O)CCC1=O
4. CCOC(=O)N1CCC(=C2c3ccc(Cl)cc3CCc3cccnc32)CC1
5. CC(C)(C)C1=Nn2c(nnc2-c2ccccn2)SC1
6. O=C(C1CC1(c1ccccc1)c1ccccc1)N1CCOCC1 (centres undefined)
7. CC(=O)[C@@]1(O)CC[C@H]2[C@@H]3CCC4=CC(=O)CC[C@]4(C)[C@H]3[C@@H](O)C[C@@]21C
8. CCOC(=O)c1[nH]c2ccccc2c1NC(=O)CCN1CCN(C(=O)OCC)CC1

-28.9% (inactive)
-2.9% (inactive)
-33.2% (inactive)
-79.3% (inactive)
-200% (inactive)
-60.9% (inactive)
-142% (inactive)
1% (inactive)

State recorded inhibition for all listed compounds.
1. O=C1c2ccccc2S(=O)(=O)N1CC(O)COc1ccc(Cl)cc1 (centres undefined)
2. CC(=O)OCC(=O)[C@@]1(O)CC[C@H]2[C@@H]3CCC4=CC(=O)CC[C@]4(C)[C@H]3C(=O)C[C@@]21C
3. O=C(O)C(Cc1c[nH]c2ccccc12)NS(=O)(=O)c1cccc2nsnc12 (centres undefined)
4. Cc1c([C@H]2[C@@H](CC#N)C2(C)C)c2ccccc2n1C
5. COC(=O)CSc1nnc2n(-c3ccc(OC)cc3)c(=O)c3c4c(sc3n12)CCCCC4

-291% (inactive)
-92.4% (inactive)
-96.3% (inactive)
-51.3% (inactive)
-233% (inactive)
